- assay_procedure: Antioxidant activity assessed as hydroxyl radical scavenging activity at 2.5 uM by ESR spin trapping assay
- Type: physicochemical
The entries below come with measured Activity values attached.
State just the number; it will be interpreted in %.

Consider the worked cases shown below.
# compound, Activity / %
records = [
    ("COc1cc(/C=C/C(=O)O)ccc1O [FERULATE]", 26),
    ("COc1cc(/C=C/C(=O)O[C@H]2CC[C@@]3(C)[C@@H](CC[C@@H]4[C@@H]3CC[C@]3(C)[C@@H]([C@H](C)CC[C@@H](C)C(C)C)CC[C@@H]43)C2)ccc1O", 27),
    ("CC[C@H](CC[C@@H](C)[C@H]1CC[C@H]2[C@@H]3CC=C4C[C@@H](OC(=O)/C=C/c5ccc(O)c(OC)c5)CC[C@]4(C)[C@H]3CC[C@]12C)C(C)C", 24),
    ("COC(=O)/C=C/c1ccc(O)c(OC)c1", 31),
    ("CC[C@H](/C=C/[C@@H](C)[C@H]1CC[C@H]2[C@@H]3CC=C4C[C@@H](OC(=O)/C=C/c5ccc(O)c(OC)c5)CC[C@]4(C)[C@H]3CC[C@]12C)C(C)C", 26),
]

`COc1cc(/C=C/C(=O)O[C@H]2CC[C@@]3(C)C(=CC[C@H]4[C@@H]5CC[C@H]([C@H](C)CCCC(C)C)[C@@]5(C)CC[C@@H]43)C2)ccc1O` has a reported Activity of 24

Data provenance is ChEMBL document CHEMBL3797046.
